- Tested target: T1, murine TIM-3 extracellular domain protein with hFc tag (mTIM-3-hFc) (mouse, UniProt Q8VIM0 29-191)
- T1 construct: also called mouse TIM-3 extracellular domain protein; not shown: human IgG Fc fragment (hFc) of the pCpC vector
- T1 chain: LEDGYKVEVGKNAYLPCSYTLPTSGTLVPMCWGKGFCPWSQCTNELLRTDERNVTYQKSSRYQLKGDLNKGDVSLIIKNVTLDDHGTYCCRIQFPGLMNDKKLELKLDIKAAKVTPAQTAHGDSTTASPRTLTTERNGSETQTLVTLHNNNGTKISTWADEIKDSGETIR
- Assay name: ELISA, coated mouse TIM-3 ECD protein, 0.6667 nM antibody
The entries below come with measured OD450 values attached.
Simply state the number, no unit and no words.

Known OD450 results, listed for orientation:
18D2H2 fully human TIM-3 antibody (human IgG4, kappa) (antibody, V domains shown) VH: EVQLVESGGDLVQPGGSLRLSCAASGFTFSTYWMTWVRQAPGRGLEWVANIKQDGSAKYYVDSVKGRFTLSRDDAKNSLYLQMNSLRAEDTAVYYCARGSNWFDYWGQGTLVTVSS VL: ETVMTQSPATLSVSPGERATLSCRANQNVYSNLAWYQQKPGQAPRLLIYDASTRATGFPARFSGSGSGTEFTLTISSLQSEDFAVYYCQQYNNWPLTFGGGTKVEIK : 0.22
39E5H1 fully human TIM-3 antibody (human IgG4, kappa) (antibody, V domains shown) VH: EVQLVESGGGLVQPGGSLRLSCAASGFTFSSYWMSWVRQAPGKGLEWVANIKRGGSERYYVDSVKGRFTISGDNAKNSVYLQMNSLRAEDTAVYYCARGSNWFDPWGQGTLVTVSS VL: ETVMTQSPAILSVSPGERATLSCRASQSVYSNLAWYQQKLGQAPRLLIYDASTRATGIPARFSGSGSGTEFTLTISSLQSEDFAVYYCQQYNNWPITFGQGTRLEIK : 0.26

// switching to the query binder
Tell me the measured OD450 of 134H3G6 fully human TIM-3 antibody (human IgG4, kappa) (antibody, V domains shown) VH: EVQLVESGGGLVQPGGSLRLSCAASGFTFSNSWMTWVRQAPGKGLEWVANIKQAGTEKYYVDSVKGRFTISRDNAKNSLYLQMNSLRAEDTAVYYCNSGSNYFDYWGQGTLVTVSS VL: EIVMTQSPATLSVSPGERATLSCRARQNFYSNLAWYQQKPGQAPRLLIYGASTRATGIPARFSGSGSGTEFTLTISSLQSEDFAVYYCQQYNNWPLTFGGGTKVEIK , please.
0.23
